These data points were gathered from ChEMBL document CHEMBL4602690.

Measured IC50 values are reported for all entries that follow.
System: SiHa
experimental_details: Antiproliferative activity against human SiHa cells by MTT assay
Type: functional, cell-based

1) COc1cc(O)c2c(c1-c1c(OC)cc(O)c3c1C(=O)C(=O)c1c-3ccc(O)c1CCC(C)(C)O)C(=O)C(=O)c1c-2ccc(O)c1CCC(C)(C)O; < 10 µM

Now for the compound whose IC50 we want.
## Task Consider the compound shown here: C=C(C)[C@H](CCC(C)(C)O)Cc1c(O)ccc2c1C(=O)C(=O)c1c-2c(O)cc(OC)c1-c1c(OC)cc(O)c2c1C(=O)C(=O)c1c-2ccc(O)c1C[C@@H](CCC(C)(C)O)C(=C)C What is its recorded IC50?
## Result < 10 µM
